# System: primary macaque hepatocytes (PMHs)
# method: CometChip assay
# condition_description: PMH, 24-h treatment; lowest concentration positive in comet assay
quantity_name: LEC (lowest effective concentration) (µM)
A number alone suffices; assume µM.

Input: Return LEC (lowest effective concentration) for the following molecule: O=P1(N(CCCl)CCCl)NCCCO1 (centres unmarked) [CPA, cyclophosphamide]
Output: 937.5

Input: Tell me its LEC (lowest effective concentration) given CCN(N=O)C(N)=O [ENU, N-ethyl-N-nitrosourea] as the entry.
Output: 2400

Input: Retrieve LEC (lowest effective concentration) measured for Cc1c2ccccc2c(C)c2c1ccc1ccccc12 [DMBA, 7,12-dimethylbenzanthracene] and print it.
Output: 31.25

Input: Identify the reported LEC (lowest effective concentration) for the following entry. Cc1ccc(N)cc1N [2,4-DAT, 2,4-diaminotoluene]
Output: 8000

Input: For the molecule [Cl][Cd][Cl] [CdCl2, cadmium chloride] , give its measured LEC (lowest effective concentration) value.
Output: 2

---

# System: primary macaque hepatocytes (PMHs)
# method: Cytotoxicity by ATP assay
# condition_description: PMH, ATP assay, 24-h treatment
quantity_name: Cytotoxicity

Solved entries:
[Cl][Cd][Cl] [CdCl2, cadmium chloride] | ++ (31–50 %)
CCCC(O)C(CC)CO (centres unmarked) [2-Ethyl-1,3-hexanediol] | + (11–30 %)
c1ccc2c(c1)cc1ccc3cccc4ccc2c1c34 [B[a]P, benzo[a]pyrene] | + (11–30 %)
COc1cc2c(c(OC)c1OC)-c1ccc(OC)c(=O)cc1[C@@H](NC(C)=O)CC2 [Colchicine] | + (11–30 %)
O=[N+]([O-])c1cc[n+]([O-])c2ccccc12 [4-NQO, 4-nitroquinoline 1-oxide] | + (11–30 %)
COc1cc(/C=C/C(=O)CC(=O)/C=C/c2ccc(O)c(OC)c2)ccc1O [Curcumin] | + (11–30 %)

Input: For primary macaque hepatocytes (PMHs), give Cytotoxicity of the listed compound: CCc1cc(C(N)=S)ccn1 [Ethionamide]
Output: + (11–30 %)

Input: # lookup: primary macaque hepatocytes (PMHs) Cytotoxicity, key = Cc1ccc(N)cc1N [2,4-DAT, 2,4-diaminotoluene]
Output: + (11–30 %)

Input: State Cytotoxicity (primary macaque hepatocytes (PMHs)) of Oc1cccc(O)c1 [Resorcinol] .
Output: ++ (31–50 %)

Input: Report its Cytotoxicity with primary macaque hepatocytes (PMHs) as the test system: CCN(N=O)C(N)=O [ENU, N-ethyl-N-nitrosourea]
Output: + (11–30 %)

Input: Look up and report measured Cytotoxicity (primary macaque hepatocytes (PMHs)) for the following compound: Oc1ccc(O)cc1 [HQ, hydroquinone]
Output: + (11–30 %)

Input: Recall the reported Cytotoxicity of Cc1c2ccccc2c(C)c2c1ccc1ccccc12 [DMBA, 7,12-dimethylbenzanthracene] on primary macaque hepatocytes (PMHs) and write it down.
Output: + (11–30 %)

Input: Provide measured Cytotoxicity on primary macaque hepatocytes (PMHs) for Nc1ccccc1C(=O)O [o-Anthranilic acid] please.
Output: ++ (31–50 %)

---

# method: Cytotoxicity by ATP assay
# condition_description: rhesus macaque, primary macaque hepatocytes (PMHs)
quantity_name: viability at 24 h, 200 µM

Input: Give reported viability at 24 h, 200 µM value for Oc1ccc(O)cc1 [HQ, hydroquinone]
Output: 78 to 81%
